target: ATM (Homo sapiens, UniProt Q13315); construct: endogenous in cells; host or cells: cultured cells, lysed and immunoprecipitated with anti-ATM monoclonal antibody; experiment: ATM immune complex protein kinase assay (inhibition by wortmannin); type: biochemical; conditions: ATM immune complexes exposed to wortmannin for 30 minutes and washed before kinase assay; PHAS-I as substrate; activity normalized to amount of ATM protein; read-out: IC50 (sensitivity of ATM-associated kinase activity to wortmannin)
Sequence (Q13315 whole entry): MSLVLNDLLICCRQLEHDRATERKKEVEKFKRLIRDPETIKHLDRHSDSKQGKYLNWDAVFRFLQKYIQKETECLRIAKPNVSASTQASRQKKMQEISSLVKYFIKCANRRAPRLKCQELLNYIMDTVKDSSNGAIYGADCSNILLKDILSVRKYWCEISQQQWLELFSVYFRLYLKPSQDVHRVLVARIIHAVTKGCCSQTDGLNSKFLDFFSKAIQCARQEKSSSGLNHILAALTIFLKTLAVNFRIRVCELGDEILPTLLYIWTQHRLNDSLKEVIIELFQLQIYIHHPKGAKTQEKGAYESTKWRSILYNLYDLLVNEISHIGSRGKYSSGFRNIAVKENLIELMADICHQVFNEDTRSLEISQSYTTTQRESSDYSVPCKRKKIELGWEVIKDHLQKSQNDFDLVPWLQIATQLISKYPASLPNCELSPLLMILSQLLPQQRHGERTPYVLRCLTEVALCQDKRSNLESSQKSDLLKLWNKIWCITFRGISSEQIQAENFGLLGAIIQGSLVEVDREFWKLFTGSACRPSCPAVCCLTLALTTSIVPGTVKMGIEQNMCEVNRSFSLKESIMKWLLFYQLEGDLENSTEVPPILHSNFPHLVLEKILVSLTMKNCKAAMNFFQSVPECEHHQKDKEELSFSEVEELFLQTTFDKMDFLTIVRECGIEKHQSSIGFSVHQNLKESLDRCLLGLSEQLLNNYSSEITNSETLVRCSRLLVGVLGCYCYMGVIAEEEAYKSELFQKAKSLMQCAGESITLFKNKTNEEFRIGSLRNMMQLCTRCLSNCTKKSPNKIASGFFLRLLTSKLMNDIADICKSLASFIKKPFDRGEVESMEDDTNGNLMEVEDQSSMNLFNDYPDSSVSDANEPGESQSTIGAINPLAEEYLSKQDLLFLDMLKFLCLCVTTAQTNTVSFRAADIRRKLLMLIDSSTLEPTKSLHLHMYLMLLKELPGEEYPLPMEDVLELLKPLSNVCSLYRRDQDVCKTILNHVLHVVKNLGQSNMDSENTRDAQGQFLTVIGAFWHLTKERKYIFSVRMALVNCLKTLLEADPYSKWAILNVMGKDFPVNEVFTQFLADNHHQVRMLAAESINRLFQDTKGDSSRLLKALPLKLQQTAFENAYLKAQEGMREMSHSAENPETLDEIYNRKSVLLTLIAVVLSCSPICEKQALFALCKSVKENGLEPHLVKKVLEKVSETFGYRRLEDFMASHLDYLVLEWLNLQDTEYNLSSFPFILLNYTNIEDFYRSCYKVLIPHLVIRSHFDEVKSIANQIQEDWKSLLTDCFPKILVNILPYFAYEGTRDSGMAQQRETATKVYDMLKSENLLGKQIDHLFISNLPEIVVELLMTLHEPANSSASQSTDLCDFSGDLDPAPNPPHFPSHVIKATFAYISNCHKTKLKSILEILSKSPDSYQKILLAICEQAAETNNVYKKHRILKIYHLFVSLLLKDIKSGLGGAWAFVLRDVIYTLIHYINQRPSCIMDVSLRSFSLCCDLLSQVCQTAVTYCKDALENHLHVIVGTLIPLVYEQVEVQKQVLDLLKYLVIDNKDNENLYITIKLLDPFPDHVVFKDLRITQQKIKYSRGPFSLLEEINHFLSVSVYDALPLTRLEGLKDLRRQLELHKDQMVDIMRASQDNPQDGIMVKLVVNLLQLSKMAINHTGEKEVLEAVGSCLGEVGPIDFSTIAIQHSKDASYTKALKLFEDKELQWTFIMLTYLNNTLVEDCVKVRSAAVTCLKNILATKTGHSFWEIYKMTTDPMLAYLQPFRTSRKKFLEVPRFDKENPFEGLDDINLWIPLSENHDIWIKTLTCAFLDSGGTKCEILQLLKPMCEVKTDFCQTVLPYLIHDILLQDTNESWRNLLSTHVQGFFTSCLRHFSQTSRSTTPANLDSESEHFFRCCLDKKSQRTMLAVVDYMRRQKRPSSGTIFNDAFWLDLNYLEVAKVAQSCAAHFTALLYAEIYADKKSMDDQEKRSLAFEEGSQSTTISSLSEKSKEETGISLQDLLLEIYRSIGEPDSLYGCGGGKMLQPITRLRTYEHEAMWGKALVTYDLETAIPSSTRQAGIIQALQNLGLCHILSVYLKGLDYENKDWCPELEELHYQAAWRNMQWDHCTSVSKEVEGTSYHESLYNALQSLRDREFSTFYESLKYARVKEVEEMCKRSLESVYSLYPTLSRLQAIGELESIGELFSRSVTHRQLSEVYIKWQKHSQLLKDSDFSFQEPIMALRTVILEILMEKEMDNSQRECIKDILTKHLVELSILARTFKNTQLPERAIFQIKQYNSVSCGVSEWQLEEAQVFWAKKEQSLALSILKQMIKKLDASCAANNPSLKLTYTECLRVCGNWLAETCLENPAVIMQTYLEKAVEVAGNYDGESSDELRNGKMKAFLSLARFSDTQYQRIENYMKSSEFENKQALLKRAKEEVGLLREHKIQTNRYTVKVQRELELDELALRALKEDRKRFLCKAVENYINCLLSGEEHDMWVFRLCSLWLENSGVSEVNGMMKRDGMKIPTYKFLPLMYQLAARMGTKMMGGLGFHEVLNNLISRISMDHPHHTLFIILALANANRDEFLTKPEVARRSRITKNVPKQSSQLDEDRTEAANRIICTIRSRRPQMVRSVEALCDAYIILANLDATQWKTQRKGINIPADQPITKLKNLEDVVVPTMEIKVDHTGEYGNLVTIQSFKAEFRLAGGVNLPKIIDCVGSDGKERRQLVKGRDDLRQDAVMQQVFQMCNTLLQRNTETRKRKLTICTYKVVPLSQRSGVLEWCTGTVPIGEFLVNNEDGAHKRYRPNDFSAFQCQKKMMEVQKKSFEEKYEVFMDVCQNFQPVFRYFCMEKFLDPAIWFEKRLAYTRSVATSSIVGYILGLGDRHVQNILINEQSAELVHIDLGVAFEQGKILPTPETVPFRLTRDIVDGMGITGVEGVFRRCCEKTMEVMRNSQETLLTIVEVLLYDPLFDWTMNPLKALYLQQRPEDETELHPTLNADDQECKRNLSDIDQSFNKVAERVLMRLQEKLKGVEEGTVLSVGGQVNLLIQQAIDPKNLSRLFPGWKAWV
pIC50: −log10 of the molar value.
PARAMETER: pIC50

• COC[C@H]1OC(=O)c2coc3c2[C@@]1(C)C1=C(C3=O)[C@@H]2CCC(=O)[C@@]2(C)C[C@H]1OC(C)=O [wortmannin] = 7.00
